test system: UO-31 renal; assay: NCI-60 one-dose screen, 48 h; conditions: 10 µM unless noted
Compounds without any hit were thinned out: in the full panel of roughly 83,000, 20% have a hit. Activity calls are given as the source filed them. Rule for the calls: active = growth percent below 10; inactive = the rest.
Respond only with the outcome that fits, drawn from active, inactive

The examples below pair each entry with its known result.
Query: Write down the call the test reported for this molecule. Item: "CCCCCCNC(=O)Oc1ccc(/C(=C(\C)c2ccc(Cl)cc2)c2ccc(OCCN(CC)CC)cc2)cc1"
Result: inactive

Query: Write down the call the test reported for this molecule. Item: "CC(C)n1cnc2c(Nc3cccc(Cl)c3)nc(N[C@H]3CCCC[C@@H]3N)nc21"
Result: inactive

Query: Write down the call the test reported for this molecule. Item: "CCc1ccccc1-n1c(N)c(C#N)c(-c2ccc(Cl)cc2)c(C#N)c1=O"
Result: inactive

Query: Write down the call the test reported for this molecule. Item: "COc1ccc(-c2[nH]c3ccc(OC)cc3c2/C=C(\C#N)S(=O)(=O)c2ccccc2)cc1"
Result: inactive

Query: Write down the call the test reported for this molecule. Item: "CCCCOc1ccc(/C=N/NC(N)=S)cc1"
Result: inactive

Query: Write down the call the test reported for this molecule. Item: "COc1ccc(C(=O)/C=C/c2sc(Cl)nc2Cl)cc1"
Result: inactive

Query: Write down the call the test reported for this molecule. Item: "Oc1ccc(-c2nc3ccc4[nH]ncc4c3c3c2CCCC3)c2cccnc12"
Result: active

Query: Write down the call the test reported for this molecule. Item: "COc1c(B(O)O)cc(C)cc1-c1nc2ccc3[nH]ncc3c2c2c1CCCC2"
Result: inactive

Query: Write down the call the test reported for this molecule. Item: "COc1ccc(-c2nc(NCCO)[nH]c(=O)c2C#N)cc1"
Result: inactive

Query: Write down the call the test reported for this molecule. Item: CC(=O)OC[C@H]1OC(Sc2sc(C(=O)c3ccc(C)cc3)c(N)c2-c2nc3ccccc3s2)[C@H](OC(C)=O)[C@@H](OC(C)=O)[C@@H]1OC(C)=O (stereo not given in full)
Result: inactive

---
Query: Write down the call the test reported for this molecule. Item: "CCCCNC(=O)Oc1ccc(/C(=C(\C)c2ccc(Cl)cc2)c2ccc(OCCN(CC)CC)cc2)cc1"
Result: inactive

Query: Write down the call the test reported for this molecule. Item: CCCCCCN1C(=O)/C(=c2\sc3n(c2=O)C2C(NN=3)N(CC)C(=O)N2CC)c2ccccc21 (stereo not given)
Result: active

Query: Write down the call the test reported for this molecule. Item: "COc1cc(C(=O)c2cc(C)c3[nH]c4ccc(C)cc4c3c2C)cc(OC)c1OC"
Result: inactive

Query: Write down the call the test reported for this molecule. Item: "Cn1cc(-c2cc3ncnc(Nc4ccc(CC(=O)Nc5cc(C(C)(C)C)nn5C)cc4)c3s2)cn1"
Result: inactive

Query: Write down the call the test reported for this molecule. Item: "CCOC(=O)c1cn2ncnc(Oc3ccc(NC(=O)NCCN4CCN(C)CC4)c(Cl)c3)c2c1C"
Result: inactive

Query: Write down the call the test reported for this molecule. Item: OC(c1ccccc1)C(NC(Cc1ccccc1)c1ccccc1)c1ccccc1 (stereo not given)
Result: inactive

Query: Write down the call the test reported for this molecule. Item: "COc1ccc(CNC(=O)C(=O)[C@H](Cc2ccccc2)NC(=O)c2[nH]c3ccccc3c(=O)c2C)cc1"
Result: inactive

Query: Write down the call the test reported for this molecule. Item: CC1Cc2c(ncn3c(-c4ccc(F)cc4)nnc23)N(C)c2ccccc21 (stereo not given)
Result: inactive

Query: Write down the call the test reported for this molecule. Item: "O=C1/C(=C/c2ccc(F)cc2)Sc2c(Br)cccc21"
Result: inactive

Query: Write down the call the test reported for this molecule. Item: "O=C(N/N=C/c1ccc(Cl)cc1)c1ccc(C(F)(F)F)nc1Nc1cccc(C(F)(F)F)c1"
Result: inactive

Where do these numbers come from? They come from PubChem BioAssay (NCI).
